The measured values listed here are drawn from PubChem BioAssay (NCI).

Test system: SNB-19 CNS
Assay: NCI tumour cell line growth inhibition, 48 h; in the data active = GI50 below about 0.43 µM; inactive = the rest
Outcome field: choose from active, inactive

These recorded examples may help you get a feel for the data.
compound="CC1SC(c2ccccc2Cl)N(NC(=O)C(O)c2ccccc2)C1=O (configuration not stated)" assigned_label=inactive
compound=C=C(C)[C@@H]1CC[C@]2(CO)CC[C@]3(C)[C@H](CC[C@@H]4[C@@]5(C)CCCNC(C)(C)[C@@H]5CC[C@]43C)[C@@H]12 assigned_label=inactive
compound="COc1ccc2c(c1)CCC1C2CC[C@@]2(C)C1CC[C@@H]2NC(=O)Cc1ccc(O)c(O)c1 (some centres not stated)" assigned_label=inactive
compound=O=C1c2c(c(=O)[nH]c3ccccc23)[C@H](c2ccccc2)[C@@H]2CCCN12 assigned_label=inactive
compound=Cc1c(Cn2c(C)nc3c(C(=O)O)cc(N4CCOCC4)cc32)cccc1C(F)(F)F assigned_label=inactive
compound="CCOC(=O)c1[nH]c2cc(Cl)ccc2c1[C@@H](C(=O)NC(C)(C)C)N(CC)C(=O)CCCCC#Cc1cccc2c1CN(C1CCC(=O)NC1=O)C2=O (some centres not stated)" assigned_label=active
compound=CCN(CC)CCN(CC)CC.CCN(CC)CCN(CC)CC.[Cu+2].[Cu+2].[O-][Cl+3]([O-])([O-])[O-].[OH3+].[OH3+] assigned_label=inactive
compound=COc1ccc(Nc2nc(NCCNc3ccnc4cc(Cl)ccc34)nc(N3CCOCC3)n2)cc1 assigned_label=inactive
compound=CSc1cc([C@@H]2C[C@H]2c2ccc(Cl)cc2)on1 assigned_label=inactive
compound="CC1=C(C#N)C23C(=O)N(c4ccccc4)C(=O)C2=C(O)C=CC3(O)N1Cc1ccc(Cl)cc1Cl (configuration not stated)" assigned_label=inactive

Test call for this compound, please: CC(=O)O.CN1[CH-]N(Cc2ccc(C#N)cc2)c2ccccc21.[Ag+] inactive

Test call for this compound, please: COC(=O)/C=C1/SC(=Nc2cccc(Cl)c2)N(CCc2c[nH]c3ccc(O)cc23)C1=O inactive

Test call for this compound, please: O=C(O)Cc1cccc2c(=O)cc(-c3ccccc3)oc12 inactive

Test call for this compound, please: CN1C(=O)CCC(N2C(=O)c3cccc(NCCOCCOCCNC(=O)c4cc5c(o4)C(=O)c4ccccc4C5=O)c3C2=O)C1=O (configuration not stated) inactive

Test call for this compound, please: NC(=O)c1cc(N2CC2)c([N+](=O)[O-])cc1[N+](=O)[O-] inactive

Test call for this compound, please: CCCc1nn(C)c2c(=O)[nH]c(-c3cc(S(=O)(=O)N4CCN(C)CC4)ccc3OCC)nc12 inactive

Test call for this compound, please: FC1(F)ON2CCc3ccccc3C2[C@H]1c1ccccc1 (some centres not stated) inactive
